Tested on: PDE4 enzyme purified from U937 human monocytic cells
Assay: PDE4 inhibition
Format: biochemical
Details: 1 μM cAMP

[
  {
    "compound": "CCOc1cc([C@@H](CS(C)(=O)=O)N2Cc3cccc(NC(=O)C4CC4)c3C2=O)ccc1OC [Compound A]",
    "testedTarget": "PDE4 enzyme purified from U937 human monocytic cells",
    "IC50 / nM": 100
  }
]
